# Kd per record follows
# assayTarget: … (Plasmodium falciparum)
# assayComment: SPR, antibody on chip
readoutLabel: Kd

binder	measuredValue
AB-007073 (antibody, V domains shown) VH: QMQLVESGGGVVQPGRSLRLSCTASGFTFSTYAMHWVRQSPGQGLQWVAVISYHSTNKYYEDSVRGRFTISRDNSKNTLYLQMNSLRAEDTAVYYCARDGYSSSFFDFWGQGTLVTVSS VL: DIQMTQSPSTLSASVGDRVAITCRASQSISRWLAWYQQQPGKAPKLLMSGASVLESGVPSRFSGSGSGTEFTLTISSLQPDDFATYYCQHYNSHFVTFGQGTKVEIK	16.5 µM
AB-007054 (antibody, V domains shown) VH: QMQLVESGGGVVQPGRSLRLSCTASGFTFSTYAMHWVRQSPGQGLQWVAVISYHSTNKYYEDSVRGRFTISRDNSKNTLYLQMNSLRAEDTAVYYCARDGYASSFFDFWGQGTLVTVSS VL: DIQMTQSPSTLSASVGDRVAITCRASQSISRWLAWYQQQPGKAPKLLMSGASVLESGVPSRFSGSGSGTEFTLTISSLQPDDFATYYCQHYNSYFVTFGQGTKVEIK	17.6 µM
AB-007049 (antibody, V domains shown) VH: QMQLVESGGGVVQPGRSLRLSCTASGFTFSTYAMHWVRQSPGQGLQWVAVISNHETNKYYEDSVRGRFTISRDNSKNTLYLQMNSLRAEDTAVYYCARDGYSSSFFDFWGQGTLVTVSS VL: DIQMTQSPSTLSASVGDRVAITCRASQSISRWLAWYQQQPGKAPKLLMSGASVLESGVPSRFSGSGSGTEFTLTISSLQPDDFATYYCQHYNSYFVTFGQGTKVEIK	2.95 µM
